Values compiled from ChEMBL document CHEMBL1777735.

# test method notes: Plasma protein binding in human
# Type: ADME, cell-free
# condition summary: read-out: PPB (converted)
Overview of reported fraction unbound across a group of molecules:
Please respond with just the number, no unit label.

Examples from the recorded data:
[[record]]
molecule = "CC(=O)c1ccc(S(=O)(=O)NC(=O)NC2CCCCC2)cc1 [ACETOHEXAMIDE]"
value = 0.25

[[record]]
molecule = "CCCCC1=NC2(CCCC2)C(=O)N1Cc1ccc(-c2ccccc2-c2nnn[nH]2)cc1"
value = 0.02

[[record]]
molecule = "CCCCc1nc(Cl)c(CO)n1Cc1ccc(-c2ccccc2-c2nn[nH]n2)cc1"
value = 0.02

[[record]]
molecule = "CCCCNc1cc(C(=O)O)cc(S(N)(=O)=O)c1Oc1ccccc1 [BUMETANIDE]"
value = 0.016

[[record]]
molecule = "CCOC(=O)[C@H](CCc1ccccc1)N[C@@H](C)C(=O)N1[C@H](C(=O)O)C[C@@H]2CCC[C@@H]21"
value = 0.105


The molecule listed as O=C(O)CCCc1ccc(N(CCCl)CCCl)cc1 shows fraction unbound equal to 0.01

fraction unbound recorded for this molecule, COc1ccc(Cl)cc1C(=O)NCCc1ccc(S(=O)(=O)NC(=O)NC2CCCCC2)cc1 [GLYBURIDE] , is 0.002

Please fill in: fraction unbound reported for CN(C)S(=O)(=O)NC(=O)CCCc1c(-c2ccc(F)cc2)[nH]c2ccc(C#N)cc12 = 0.004

For this molecule ( CCOc1cc(CC(=O)N[C@@H](CC(C)C)c2ccccc2N2CCCCC2)ccc1C(=O)O [REPAGLINIDE] ), measured fraction unbound is 0.009

Looking up Cc1ccc(C(=O)c2ccc(CC(=O)O)n2C)cc1 , I found its fraction unbound recorded as 0.003

Documented fraction unbound of O=C(O)CCn1c2c(c3ccccc31)C[C@H](NS(=O)(=O)c1ccc(F)cc1)CC2 : 0.025

Entry O=C(c1ccccc1)c1ccc2n1CCC2C(=O)O (centres undefined) , fraction unbound reported as 0.008

Lab note: Cc1ccc(S(=O)(=O)NC(=O)NN2CCCCCC2)cc1 [TOLAZAMIDE] gave fraction unbound of 0.06

Please fill in: fraction unbound reported for CCc1cccc2c3c([nH]c12)C(CC)(CC(=O)O)OCC3 (centres undefined) = 0.009
